# credit: PubChem BioAssay AID1996

Can you tell me solubility kinetic for the items I'm about to list?
PROTOCOL CONDITIONS: buffer; pH 7.4; 200.0 µM

The compound identified as "N#CC(C#N)=CNc1cccnc1" registered its solubility kinetic at > 25.5 µg/mL

"COc1ccc(NC(=O)c2cc(-c3ccc(C)cc3)on2)cc1" yielded solubility kinetic of < 0.3 µg/mL

Just so you know, measured solubility kinetic for "Cc1cc(C)c2c(ccc3cccc[n+]32)c1.[O-][Cl+3]([O-])([O-])[O-]" came out at > 46.2 µg/mL

* * *

PROTOCOL CONDITIONS: buffer; pH 7.4; 200.0 µM
I'd appreciate it if you could supply solubility kinetic values for the items below.

Per the records, this compound ( COc1ccc(S(=O)(=O)N2CCCCC2)cc1NC(=O)C1CC(=O)N(Cc2ccco2)C1 (centres undefined) ) has solubility kinetic equal to > 0.0692 mg/mL

Memo: COc1cccc(/C=C/C(=O)N2CC(C)OC(C)C2)c1OC (centres undefined) , reported solubility kinetic: > 0.0458 mg/mL

"COc1ccc(NC(=O)Nc2ccon2)cc1OC" yielded solubility kinetic of > 0.0395 mg/mL

Sure, the documented solubility kinetic for "CN(c1ccccc1)c1nc(N)c([N+](=O)[O-])c(Nc2ccccc2F)n1" is < 0.0001 mg/mL
